Target: Concanavalin-A (Canavalia ensiformis)
Assay: ConA small-molecule binders, primary screen, artefact control for SMM control protein annotation, biochemical, small-molecule microarray, Alexa647 label, 635 nm (AID 1127);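 also: z combines 667 nm emission intensity with signal-to-noise across three replicate slides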
Conditions: ConA-A647 binding fluorescence, higher = more signal
Listing of entries alongside the reported composite z-score.
Enter the number alone.

COc1ccc(C(O)C2C=CC3C(=O)NC(=O)C3N2Nc2ccccn2)cc1OCc1ccccc1 (stereo unspecified): 0.212
O=C1c2ccccc2[C@@]2(Cc3ccccc3N(Cc3ccccc3)C2=O)[C@H](c2ccc(CO)cc2)N1C1CCCCC1: 1.01
CC(C)OC(=O)CC(=O)CC(O)c1ccc(C#N)cc1 (stereo unspecified): -0.6

Input: Given the entry CC(C)CNC(=O)[C@@]1(c2ccc([N+](=O)[O-])cc2)CC(=O)N(CC23CC4CC(CC(C4)C2)C3)[C@@H]1c1ccc(CO)cc1I , report its measured composite z-score.
Output: 0.974

Input: Also CC(C)C(=C=CC[C@H](O)c1ccccc1OCCO)C[C@H](O)c1ccccn1 ?
Output: -0.0625

Input: Also O=C1OCCC=C[C@H]2OC34C=CCN(c5ccc6ccccc6c5)C(=O)[C@H]3N(CCCCCO)C(=O)[C@@H]4C12 (stereo partly specified) ?
Output: -0.119

Input: Also C=CCC(OC(C)=O)[C@@H]1[C@@H](N(Cc2cc3ccccc3o2)C(=O)c2ccc(C)cc2)c2cc(OCCCO)ccc2N1C(=O)c1ccc2ccccc2c1 (stereo partly specified) ?
Output: -0.309

Input: Also CC(=O)NCCCC[C@@H]1NC(=O)[C@@H]2C[C@H](C(=O)NCCCCCCNC(=O)CS)[C@H](c3ccc(O)cc3)N2C1=O ?
Output: 0.647

Input: Also CC(C)C(=C=CC[C@@H](O)c1ccccc1OCCO)C[C@@H](O)c1ccccn1 ?
Output: 0.451

Input: Also O=C1O[C@@H](c2ccccc2)[C@@H](c2ccccc2)N2[C@@H](c3ccc(OCCO)cc3)[C@]3(C(=O)Nc4ccccc43)[C@@H](C(=O)Nc3nc4ccccc4s3)[C@H]12 ?
Output: 1.11

Input: Also COC(=O)[C@@]1(Cc2ccccc2N=[N+]=[N-])COC(c2ccc(OCCCO)cc2)=N1 ?
Output: 1.08

Input: Also CCCC[C@@H]1C[C@H]1[C@@H](NC(=O)c1ccc(-c2ccccc2)cc1)c1ccc(-c2ccccc2)cc1 ?
Output: -0.142

Hello, the source for this data is PubChem BioAssay, in case you need it.
